Origin of values: ChEMBL document CHEMBL1144176

List of CC50 at 72 h values.
assay: Cytotoxicity against mouse J774A1 cells after 72 hrs by MTT assay; type: cell-based, J774.A1
Value expressed in µg/mL; do not type the unit.

Reference set, count: 2
smiles representation | endpoint | output unit | obs value
CCOP(=O)(OCC)C(O)(CCCCn1c2c(c3ccccc31)CCCc1ccccc1-2)P(=O)(OCC)OCC | CC50 at 72 h | µg/mL | 5.81
CCOP(=O)(OCC)C(O)(CCCCCCn1c2c(c3ccccc31)CCSc1ccccc1-2)P(=O)(OCC)OCC | CC50 at 72 h | µg/mL | 4.5

Let us examine a further case.
Input line: Give its CC50 at 72 h value. Item: `CCOP(=O)(OCC)C(O)(CCCCCn1c2c(c3ccccc31)CCSc1ccccc1-2)P(=O)(OCC)OCC`
Output line: 3.66
